Molecular target: T1, human PD-L1 on cells (PHA-activated human T cells); PD-L1-transfected CHO-S cells; A375 melanoma cells; … (human, UniProt Q9NZQ7 19-290)
T1 construct: whole, on cells; also called PD-L1 expressing T cells; PD-L1 expressing CHO-S cells
T1 sequence (Q9NZQ7 19-290): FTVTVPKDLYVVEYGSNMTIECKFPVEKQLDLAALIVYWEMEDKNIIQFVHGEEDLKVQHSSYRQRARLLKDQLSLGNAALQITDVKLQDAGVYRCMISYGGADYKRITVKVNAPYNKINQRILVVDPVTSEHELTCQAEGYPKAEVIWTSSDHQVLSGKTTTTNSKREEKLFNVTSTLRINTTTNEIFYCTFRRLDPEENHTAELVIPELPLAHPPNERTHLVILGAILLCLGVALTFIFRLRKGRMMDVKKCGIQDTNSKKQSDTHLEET
Assay: flow cytometry blocking assay: PD-L1 expressing CHO-S cells incubated with antibody, then biotin-labeled PD-1-Fc and streptavidin-PE; MFI of bound PD-1
Measured Parameter: IC50 (read off the curve)

Query :: Identify measured IC50 (read off the curve) associated with PL1 (full-length, N297A mutant human IgG1) (antibody, V domains shown) VH: QIQLVQSGAEVKKPGSSVKVSCKASGGTFSSYAISWVRQAPGQGLEWMGRIIPILGIANYAQKFQGRVTITAGESTSTAYMELSSLRSEDTAVYYCAREGSSGWLGVLDYWGQGTLVTVSS VL: QAVLTQPSSVSGAPGQRVTISCTGSSSNVGAGYDVHWYQQLPGTAPKLLIYGNSNRPSGVPDRFSGSKSGTSASLAITGLQAEDEADYYCQSYDSSLSGWVFGGGTKLTVLG
Result :: ~0.02 µg/mL

Query :: Identify measured IC50 (read off the curve) associated with anti-PD-L1 ref-2 (IgG2) (antibody, V domains shown) VH: EVQLVESGGGLVKPGGSLRLSCAASGFTFSSYGMSWVRQAPGKGLEWVATINSGGSNTYYPDSLKGRFTISRDNAKNSLYLQMNSLRAEDTAVYYCARHDGGAMDYWGQGTTVTVSS VL: DIQMTQSPSSLSASVGDRVTITCRASESIYSYLAWYQQKPGKAPKLLVYNTKTLPEGVPSRFSGSGSGTDFTLTISSLQPEDFATYYCQHHYGTPPWTFGQGTRLEIK
Result :: ~0.2 µg/mL

Query :: Identify measured IC50 (read off the curve) associated with PL3 (full-length, N297A mutant human IgG1) (antibody, V domains shown) VH: QVQLVQSGAEVKKPGSSVKVSCKASGGTFSSYTISWVRQAPGQGLEWMGRIIPILGIANYAQKFQGRVTITADKSTSTAYMELSSLRSEDTAVYYCARSRDGYSFGAFDIWGQGTLVTVSS VL: QSVVTQPPPVSGAPGQRVTISCTGSSSNIGAGYDVHWYQQLPGTAPKLLIYGNSNRPSGVPDRFSGSKSGTSASLAITGLQAEDEADYYCQSYDSSLSAPVVFGGGTKLTVLG
Result :: ~0.1 µg/mL

Every entry's value here was drawn from patent US20190225691A1.
